- Tested on: MDA-MB-231 breast
- assay.procedure: NCI tumour cell line growth inhibition, 48 h

>  <smi>
COc1ccc(NC(=S)Nc2cc(C)cc(C)n2)cc1

>  <TGI>
> 100 µM

$$$$
>  <smi>
CC(C)=C1C(=O)C[C@]2(C)C[C@H]3O[C@]3(C)CC[C@@H]3O[C@@]3(C)CC[C@@H]12

>  <TGI>
> 50 µM

$$$$
>  <smi>
NC(=O)c1ccc(C(=O)Nc2ccc([As](=O)(O)O)cc2)cc1

>  <TGI>
> 100 µM

$$$$

----------
Recorded GI50, one value per entry.
- Tested on: OVCAR-8 ovarian
- assay.procedure: NCI tumour cell line growth inhibition, 48 h

>  <compound>
NC1CCC(Nc2nc(NCc3ccc(-c4ccco4)nc3)c3ncn(C4CCCC4)c3n2)CC1 (centres undefined)

>  <GI50>
43.1 nM

$$$$
>  <compound>
CNC(=O)c1ccccc1Nc1nc(Nc2ccc(N3CCOCC3)cc2OC)ncc1Cl

>  <GI50>
2290 nM

$$$$
>  <compound>
O=C(Nc1ccc(F)cc1F)c1cc(I)ccc1O

>  <GI50>
3230 nM

$$$$
>  <compound>
COc1ccc2c(c1)C(=O)/C(=C/c1ccc(OCC(=O)Nc3nccs3)cc1)O2

>  <GI50>
17200 nM

$$$$
>  <compound>
O=C(CN1CCN(c2cc3c(cc2F)c(=O)c(C(=O)N/N=C/c2ccccc2O)cn3C2CC2)CC1)N/N=C\c1ccccc1O

>  <GI50>
417 nM

$$$$
>  <compound>
CNC(=O)c1cc(Oc2ccc3nc(NC(=O)Nc4ccc(Cl)c(C(F)(F)F)c4)sc3c2)ccn1

>  <GI50>
2340 nM

$$$$
>  <compound>
Cc1cc(=O)n2[nH]c(-c3ccc(C(C)(C)C)cc3)cc2n1

>  <GI50>
11200 nM

$$$$
>  <compound>
Cn1ccnc1C(=O)/C=C/c1ccc(CC(=O)Nc2ccc(Br)cc2)cc1

>  <GI50>
5390 nM

$$$$
>  <compound>
COc1cc(/C=C/c2cc(/C=C/c3ccc(O)c(OC)c3)n(C(=O)Nc3ccc(F)cc3)n2)ccc1O

>  <GI50>
1500 nM

$$$$

----------
- Test system: OVCAR-5 ovarian
- assay.procedure: NCI tumour cell line growth inhibition, 48 h
# reported TGI; entries follow
quantity: TGI (µM)

>  <molecule>
CC(=O)[O][Hg][c]1c(N)c(C)cc(C)c1F

>  <comparison.sign>
=

>  <test.value>
3.67

$$$$
>  <molecule>
O=C(O)C(Cc1ccccc1)N1C(=O)N/C(=C\c2ccc(F)cc2)C1=O (stereo not given)

>  <comparison.sign>
>

>  <test.value>
100

$$$$
>  <molecule>
COc1cc(/C=C/c2cc(/C=C/c3ccc(O)c(OC)c3)n(C(=O)Nc3ccc(F)cc3)n2)ccc1O

>  <comparison.sign>
=

>  <test.value>
45

$$$$
>  <molecule>
COc1ccc(/C=c2/sc3n(c2=O)C(c2ccccc2)C2(O)CCCCC2N=3)cc1 (stereo not given)

>  <comparison.sign>
>

>  <test.value>
12.5

$$$$
>  <molecule>
O=C1NC2(CCCCC2)C2CCCCC(O)C12 (stereo not given)

>  <comparison.sign>
>

>  <test.value>
100

$$$$

----------
- Test system: RPMI-8226 leukemia
- assay.procedure: NCI tumour cell line growth inhibition, 48 h
Measured TGI accompanies every entry in the list below.
quantity: TGI

>  <compound>
Cc1nc2c(nc1C)C(=O)c1ccccc1C2=O

>  <test.value>
45.9 µM

$$$$
>  <compound>
O=C1c2ccccc2C(=O)c2sc(Nc3cccc(Cl)c3)nc21

>  <test.value>
4.07 µM

$$$$
>  <compound>
Oc1ccc(Cl)cc1-c1cc(-c2ccccc2Cl)[nH]n1

>  <test.value>
> 100 µM

$$$$
>  <compound>
O=c1c2cccnc2n2n1Cc1ccccc1C2

>  <test.value>
> 100 µM

$$$$
>  <compound>
CN(C)c1ccc(C2CC(c3ccc4ccccc4c3O)=NN2)cc1 (stereo unspecified)

>  <test.value>
> 100 µM

$$$$
>  <compound>
CS(=O)(=O)OCCCCOS(=O)(=O)CF

>  <test.value>
> 100 µM

$$$$
>  <compound>
COc1cc2c(c(OC)c1O)C(=O)C(OC)C(c1ccc(O)c(O)c1)O2 (stereo unspecified)

>  <test.value>
12.9 µM

$$$$
>  <compound>
Cn1ccnc1C(=O)/C=C/c1ccc(CC(=O)Nc2ccc(Br)cc2)cc1

>  <test.value>
8.11 µM

$$$$
>  <compound>
CCOC(=O)COc1cccc2c1C(=O)CCO2

>  <test.value>
> 100 µM

$$$$
>  <compound>
O[C@H]1[C@H]2c3cc4c(cc3CN3CCC(=C[C@@H]1O)[C@H]23)OCO4

>  <test.value>
5.03 µM

$$$$
>  <compound>
COc1cc2c(cc1OC)[C@@H]1[C@H](C#N)C(=O)C(C)(C)N1CC2

>  <test.value>
> 100 µM

$$$$

Every entry's value here was drawn from PubChem BioAssay (NCI).
